Data provenance: patent US20060183909A1

- System: xanthurenic acid receptor
- METHOD_NOTES: Screening: displacement of [3H]-XA binding to synaptic membranes at a fixed concentration
- CONDITION_DESCRIPTION: compound at 10 μM; 200 nM [3H]-XA, synaptic membranes; xanthurenic acid set arbitrarily to 100%
Output 1 for % inhibition of XA binding at 10 μM* not less than 20%; output 0 otherwise.

Query: Given O=C(O)c1cc(O)c2cc(CCc3ccccc3)cc(O)c2n1 [Compound 22a] , state whether its % inhibition of XA binding at 10 μM* is at least 20%.
Reply: 1

Query: Does % inhibition of XA binding at 10 μM* meet or surpass 20% for O=C(O)c1nc2c(OCc3ccccc3)cccc2c(O)c1CN1CCCC1 [Compound 40a] ?
Reply: 1

Query: API: above_or_equal(metric=% inhibition of XA binding at 10 μM*, cutoff=20%) for item Nc1cc(CCc2ccccc2)cc2c(O)cc(C(=O)O)nc12 [Compound 118c]
Reply: 1

Query: # check: % inhibition of XA binding at 10 μM* of Nc1cc(O)cc2c(O)cc(C(=O)O)nc12 [Compound 79d] is greater than or equal to 20%
Reply: 1

Query: Does the reported % inhibition of XA binding at 10 μM* for COc1ccc(Br)c2ccc(C(=O)O)nc12 fall at or above the 20% mark?
Reply: 0

Query: Quick check: does O=C(O)c1cc(O)c2c(Br)ccc(O)c2n1 have % inhibition of XA binding at 10 μM* greater than or equal to 20%?
Reply: 1

Query: Kindly determine if % inhibition of XA binding at 10 μM* recorded for Nc1cccc2ccc(C(=O)O)nc12 is above or exactly 20%.
Reply: 0

Query: Does the reported % inhibition of XA binding at 10 μM* for Cl.Nc1cccc2c(CCCO)cc(C(=O)O)nc12 [Compound 96c] fall at or above the 20% mark?
Reply: 0

Query: Given the entry Cc1ccc(N)c2nc(C(=O)O)cc(O)c12 , answer whether its % inhibition of XA binding at 10 μM* meets or surpasses 20%.
Reply: 1
